Assay: solvent given as SMILES
Settings: in C1CCCCC1
quantity: emission maximum (nm)
Report the value in nm with no unit label.

As a guide, the following entries are already answered.
CN(C)CCN(Cc1c2ccccc2cc2ccccc12)c1ccc([N+](=O)[O-])cc1: 411
O=c1cc(C(F)(F)F)c2cc3c4c(c2o1)CCCN4CCC3: 455
COc1ccc(C2=CC3=C(c4c(C)cc(C)cc4C)c4cc(-c5ccc(OC)cc5)c(-c5ccc(OC)cc5)n4[B-](F)(F)[N+]3=C2c2ccc(OC)cc2)cc1: 666
CCN(CC)c1ccc2cc(-c3nc4ccccc4s3)c(=O)oc2c1: 462
C[Si](C)(C)[Si](C)(C)c1c2ccccc2cc2ccccc12: 429

query: Using the record for `CN(C)c1ccc(/C=C/C=C/c2ccc([N+](=O)[O-])c(O)c2)cc1` , report its emission maximum.
result: 530

query: What value of emission maximum has been recorded for this entry: `CN(C)c1ccc(N(C)C)cc1`
result: 394.48

query: Bench note: what emission maximum did `c1ccc(-c2nc(-c3ccccc3)nc(-c3ccc(-n4c5ccccc5c5c6oc7ccccc7c6ccc54)cc3)n2)cc1` show?
result: 393.5

query: What value of emission maximum has been recorded for this entry: `Cc1ccccc1C`
result: 291.38

query: Given the molecule `CN(C)c1cc(C#N)c(N(C)C)c(C#N)c1` , what is its reported emission maximum?
result: 495.79

---

Known emission maximum of a selection of compounds
Test: solvent given as SMILES
Settings: in C1CCOC1

Reference set (4 entries):
Cc1csc(C)c1C1=C(c2c(C)sc(-c3ccc(-c4nc(-c5ccccc5)c(-c5ccccc5)[nH]4)cc3)c2C)C(F)(F)C(F)(F)C1(F)F: 410 nm
CCN1C(=O)C(C2C(=O)c3c4ccccc4cc4cc5ccccc5c2c34)C(=O)N(CC)C1=S (stereo not drawn): 571 nm
CN(C)c1ccc(C#Cc2nc(-c3ccccc3)nc3ccccc23)cc1: 549 nm
CN(C)CCN(Cc1c2ccccc2cc2ccccc12)c1ccc([N+](=O)[O-])cc1: 414 nm

query: Given the compound `C(=C(c1ccccc1)c1ccccc1)c1ccc(-c2cc(-c3ccc(C=C(c4ccccc4)c4ccccc4)cc3)c(-c3ccc(C=C(c4ccccc4)c4ccccc4)cc3)cc2-c2ccc(C=C(c3ccccc3)c3ccccc3)cc2)cc1` , what is its reported emission maximum?
result: 440 nm

query: Param item = `N#Cc1c(N2CCCCC2)cc(-c2cccc3ccccc23)c2c1-c1ccccc1C2` ; retrieve measured emission maximum.
result: 442 nm

query: Fill blank: measured emission maximum of the compound `CCCCC1(CCCC)c2cc(C#Cc3ccc(C=C4c5ccccc5C=Cc5ccccc54)cc3)ccc2-c2ccc(C#Cc3ccc(C=C4c5ccccc5C=Cc5ccccc54)cc3)cc21` is ____.
result: 405 nm

query: # get_value(readout='emission maximum', item= `O=C1OC(=O)c2ccc(N(c3ccccc3)c3ccc4ccccc4c3)c3cccc1c23` )
result: 621 nm

---

Assay: solvent given as SMILES
Conditions: in CCOC(C)=O
quantity: emission maximum
Note: a bare number is incomplete; add the unit.

Consider the reported emission maximum for these molecules:
N#Cc1ccc2c(c1)CCc1nc(-c3ccc([N+](=O)[O-])cc3)c3c(c1-2)CCc1cc(C#N)ccc1-3: 452 nm
c1ccc(C2CCN3COc4c5ccccc5c5c6c7c(c2c3c46)C(c2ccccc2)CCN7CO5)cc1 (centres undefined): 584 nm
CC1(C)Nc2ccccc2-c2[nH]c3ccccc3c(=O)c21: 491 nm
CCCCCCCCC1(CCCCCCCC)c2cc(C=O)ccc2-c2ccc(/C=C/c3ccc(N(c4ccccc4)c4ccccc4)cc3)cc21: 456 nm
CCCCN(c1ccccc1)c1ccc2c(c1)C(CC)(CC)c1cc(/C=C/c3ccc(/C=C(\C#N)C(=O)O)s3)ccc1-2: 590 nm
CC(=O)Nc1ccc(/C=C2\OC(=O)c3cc(N)ccc32)cc1: 443.66 nm
COc1c(-c2ccc(N(C)C)cc2)oc2ccccc2c1=O: 468.65 nm
c1ccc2nc3cccc(-c4ccc(-n5c6ccccc6c6ccccc65)cc4)c3cc2c1: 460 nm

query: Endpoint output: emission maximum of `F[B-]1(F)n2c(ccc2N2CCOCC2)C(c2ccccc2)=C2C=CC(N3CCOCC3)=[N+]21` . Value?
result: 597 nm

query: emission maximum for `CC1=[N+]2C(=C(c3ccc(C#N)cc3)c3ccc(C)n3[B-]2(F)F)C=C1` ?
result: 537 nm

query: Dear colleague, I am looking for the recorded emission maximum of the following molecule: `O=C1/C(=C\c2ccc(N(c3ccccc3)c3ccccc3)cc2)S(=O)(=O)c2ccccc21`
result: 617 nm

query: Fill in: emission maximum of `Fc1ccc(-c2nc3n(c2-c2ccncc2)CCS3)cc1` is ___
result: 414 nm

query: Can you share its emission maximum? I mean this molecule: `COC(=O)C[C@H](Cc1c[nH]c2ccccc12)NC(=O)[C@H](CC(=O)N[C@@H](CC1=CCc2ccccc21)C(=O)OC)NC(=O)OC(C)(C)C`
result: 326 nm

query: GET /values?readout=emission maximum&item= `CCOc1cc2c(cc1/C=C/C(=C(C#N)C#N)c1ccccc1)c1ccccc1n2CC`
result: 537 nm

query: Look up emission maximum: `Cc1cc(O)c(C(C)C)cc1/N=C/c1ccc(C(F)(F)F)cc1`
result: 421 nm

query: Find the recorded emission maximum belonging to `O=Cc1cc(N2CCCCC2)c2ccc3c(N4CCCCC4)cc(N4CCCCC4)c4ccc1c2c43` and report it.
result: 562 nm

query: Entry `Cc1ccc(C2=C3C=C(I)C=[N+]3[B-](F)(F)n3cccc32)cc1` : reported emission maximum = ?
result: 543 nm

query: Could you share which emission maximum value was measured for `CCN(CC)c1ccc2cc(-c3nc4ccccc4s3)c(=O)oc2c1` ?
result: 492.8 nm

query: What does the record list as emission maximum for `CC1=C(Cc2ccccc2)C(C)=[N+]2C1=C(C)c1c(C)c(-c3csc(N4CCOCC4)n3)c(C)n1[B-]2(F)F` ?
result: 545 nm

---

Readings of emission maximum for the listed compounds
Assay: solvent given as SMILES
Conditions: in ClC(Cl)Cl
Answer format: value, then unit.

Below, each entry is followed by its recorded emission maximum result.
CCCCCCCCN1c2ccccc2Sc2cc(/C=C/c3ccc(N(c4ccc(/C=C/c5ccc6c(c5)Sc5ccccc5N6CCCCCCCC)cc4)c4ccc(/C=C/c5ccc(/C=C/c6ccc(N(c7ccc(/C=C/c8ccc(N(c9ccccc9)c9ccccc9)cc8)cc7)c7ccc(/C=C/c8ccc(N(c9ccccc9)c9ccccc9)cc8)cc7)cc6)c6nsnc56)cc4)cc3)ccc21: 668 nm
CCCCCCCCCCOc1cc(OCCCCCCCCCC)cc(C2=C3C(/C=C/c4ccc(OC)cc4)=CC(/C=C/c4ccc(OC)cc4)=[N+]3[B-](F)(F)n3c(/C=C/c4ccc(OC)cc4)cc(C=Cc4ccc(OC)cc4)c32)c1: 710 nm

query: Recorded emission maximum of `c1ccc2cc(-n3cnc4ccccc43)ccc2c1` , please.
result: 375 nm

query: Which value of emission maximum has been reported for `CC(C)(C)c1ccc2oc3nc4oc5cc(-n6c7ccccc7c7ccccc76)ccc5c4cc3c2c1` in the records?
result: 396 nm

query: Which value of emission maximum has been reported for `CC1=C(/C=C/c2ccccc2)C(C)=[N+]2C1=C(c1ccccc1)c1c(C)c(/C=C/c3ccccc3)c(C)n1[B-]2(F)F` in the records?
result: 633 nm

query: Look up emission maximum for this compound: `CCCCCCn1c2ccccc2c2cc3c4cc5c6ccccc6n(CCCCCC)c5cc4c4cc5c(C)cc(=O)oc5cc4c3cc21`
result: 415 nm

---

Assay: solvent given as SMILES
Details: in ClCCl
Label key: True means emission maximum under 500 nm; False means emission maximum of 500 nm or more.

Cc1cc(C)c(C2=C3C=C(/C=C/C(=O)OC(C)(C)C)C=[N+]3[B-](F)(F)n3c2ccc3N2CCCC2)c(C)c1: False
CCN(CC)c1ccc2c(c1)oc(=O)c1cnc3c(c(C)nn3-c3ccccc3)c12: True
O=c1c2cc(Cl)ccc2nc2n1[B-](F)(F)[n+]1ccccc1-2: True
CC(C)[Si](C#Cc1c2ccccc2c(C#C[Si](C(C)C)(C(C)C)C(C)C)c2nc3c4ccccc4c(=O)c4ccccc4c3nc12)(C(C)C)C(C)C: False
c1ccc(-n2c3ccccc3c3cc(-n4ccc5cc(-c6ccc7c(c6)C(c6ccccc6)(c6ccccc6)c6ccccc6-7)ccc54)ccc32)cc1: True

query: Could you please tell me whether emission maximum recorded for `Cc1cn2cc(-c3ccccc3)[n-][n+]2c1` is less than 500 nm?
result: True

query: Problem: For the molecule `CCCCCCCCCCCCN1C(=O)c2c(c3ccc4cc(-c5ccccc5)c(OC)cc4c3c3c2ccc2cc(-c4ccccc4)c(OC)cc23)C1=O` , is emission maximum under 500 nm?
result: False

query: # TODO verify emission maximum < 500 nm strictly for this molecule: `CCN(CC)c1ccc2cc(C#N)/c(=N\C(C)=O)oc2c1`
result: True

query: Given `Oc1ccc(-c2cccs2)cc1-c1nc2ccccc2s1` , is recorded emission maximum strictly lower than 500 nm?
result: True

query: State whether 500 nm exceeds emission maximum recorded for Cc1ccc(-c2c3nc(c(-c4ccc(C)cc4)c4ccc([nH]4)c(-c4ccc(OC(=O)C(C)c5ccc(-c6ccccc6)c(F)c5)cc4)c4nc(c(-c5ccc(C)cc5)c5ccc2[nH]5)C=C4)C=C3)cc1 (stereo unspecified) .
result: False
